# Test system: acetylcholine (Ach)
# experiment.summary: Acetylcholine concentration (Example 3)
# Assay type: in vivo, rats
# condition.label: young rats, oral 14 days

# compound, target.or.system, acetylcholine (Ach) concentration / U/mL
data = [
    ("C[N+](C)(C)CCOP(=O)([O-])OC[C@H](O)CO [alpha-GPC, L-Alpha glycerylphosphorylcholine, reference compound]", "acetylcholine (Ach)", 65.89),
    ("Cn1cnc2c1c(=O)[nH]c(=O)n2C [theobromine, reference compound]", "acetylcholine (Ach)", 64.28),
    ("Cn1c(=O)c2[nH]cnc2n(C)c1=O [theophylline, reference compound]", "acetylcholine (Ach)", 63.89),
    ("Cn1c(=O)[nH]c2ncn(C)c2c1=O [paraxanthine, 1,7-Dimethyl-3H-purine-2,6-dione]", "acetylcholine (Ach)", 66.83),
]

* * *

# System: acetylcholine (Ach)
# experiment.summary: Acetylcholine concentration (Example 3)
# Assay type: in vivo, rats
# condition.label: old rats, oral 14 days
assay.endpoint: acetylcholine (Ach) concentration

# compound, reported.result
measured = [
    ("Cn1c(=O)[nH]c2ncn(C)c2c1=O", "59.78±2.61 U/mL"),
    ("Cn1c(=O)c2[nH]cnc2n(C)c1=O [theophylline, reference compound]", "55.33±1.05 U/mL"),
    ("C[N+](C)(C)CCOP(=O)([O-])OC[C@H](O)CO [alpha-GPC, L-Alpha glycerylphosphorylcholine, reference compound]", "56.89±1.76 U/mL"),
    ("Cn1cnc2c1c(=O)[nH]c(=O)n2C [theobromine, reference compound]", "56.67±1.32 U/mL"),
]

* * *

Parameter escape latency: see the listing below.
# System: male Swiss Albino Wistar rats
# experiment.summary: Walter Morris Maze test (Example 3)
# Type: in vivo
# condition.label: old rats (16-month-old), oral 14 days

# compound, escape latency (s)
data = [
    ("C[N+](C)(C)CCOP(=O)([O-])OC[C@H](O)CO [alpha-GPC, L-Alpha glycerylphosphorylcholine, reference compound]", 39.83),
    ("Cn1cnc2c1c(=O)[nH]c(=O)n2C [theobromine, reference compound]", 42.33),
    ("Cn1c(=O)[nH]c2ncn(C)c2c1=O [paraxanthine, 1,7-Dimethyl-3H-purine-2,6-dione]", 39.00),
    ("Cn1c(=O)c2[nH]cnc2n(C)c1=O [theophylline, reference compound]", 43.83),
]

* * *

# Tested on: dopamine (dopa)
# experiment.summary: Dopamine concentration (Example 3)
# Assay type: in vivo, rats
# condition.label: old rats, oral 14 days
# maps each entry to its dopamine (dopa) concentration

# compound, target.or.system, units.text, dopamine (dopa) concentration
records = [
    ("Cn1cnc2c1c(=O)[nH]c(=O)n2C [theobromine, reference compound]", "dopamine (dopa)", "ng/L", 503.03),
    ("Cn1c(=O)c2[nH]cnc2n(C)c1=O [theophylline, reference compound]", "dopamine (dopa)", "ng/L", 495.82),
    ("C[N+](C)(C)CCOP(=O)([O-])OC[C@H](O)CO [alpha-GPC, L-Alpha glycerylphosphorylcholine, reference compound]", "dopamine (dopa)", "ng/L", 506.35),
    ("Cn1c(=O)[nH]c2ncn(C)c2c1=O", "dopamine (dopa)", "ng/L", 516.85),
]

* * *

# Test system: glutathione (GSH)
# experiment.summary: Glutathione level (Example 3)
# Format: in vivo, rats
# condition.label: old rats, oral 14 days

# compound, units.text, glutathione (GSH) level
rows = [
    ("Cn1c(=O)c2[nH]cnc2n(C)c1=O [theophylline, reference compound]", "µg/mL", 24.23),
    ("Cn1c(=O)[nH]c2ncn(C)c2c1=O [paraxanthine, 1,7-Dimethyl-3H-purine-2,6-dione]", "µg/mL", 25.57),
    ("Cn1cnc2c1c(=O)[nH]c(=O)n2C [theobromine, reference compound]", "µg/mL", 24.53),
    ("C[N+](C)(C)CCOP(=O)([O-])OC[C@H](O)CO [alpha-GPC, L-Alpha glycerylphosphorylcholine, reference compound]", "µg/mL", 24.72),
]
